I'd appreciate it if you could supply SPOT peptide array binding signal intensity values for the items below.
Target: AgHse1
Procedure details: SPOT peptide array binding signal intensity (averaged, normalized) (arbitrary units (background-subtracted, floor 0; scale differs between SH3 domains)); higher = stronger binding of the SH3 domain to the peptide
API note: the answer field is a bare number with no unit suffix.

In: Provide one value: measured SPOT peptide array binding signal intensity of "LKRITSPPLPPRADS"
Out: 49

In: Provide one value: measured SPOT peptide array binding signal intensity of "RVRKTHVPASKRPSG"
Out: 210

In: Provide one value: measured SPOT peptide array binding signal intensity of "SKIRPTPRKPSRMAT"
Out: 263

In: Provide one value: measured SPOT peptide array binding signal intensity of "QLMKNLPKIPLLNDI"
Out: 229

In: Provide one value: measured SPOT peptide array binding signal intensity of "HKVLRPFLLRRLKKD"
Out: 2970

In: Provide one value: measured SPOT peptide array binding signal intensity of "SGVRLPAPPPPPRRG"
Out: 24.5

In: Provide one value: measured SPOT peptide array binding signal intensity of "RKRAPTPPAPSRSEK"
Out: 171

In: Provide one value: measured SPOT peptide array binding signal intensity of "AATTSTPPLPRRRAT"
Out: 21

In: Provide one value: measured SPOT peptide array binding signal intensity of "MAMRPIPPLPTESEY"
Out: 38

In: Provide one value: measured SPOT peptide array binding signal intensity of "HGKRRAPLLLAKLDV"
Out: 145

In: Provide one value: measured SPOT peptide array binding signal intensity of "SSAAPPPPPRRATPE"
Out: 11

In: Provide one value: measured SPOT peptide array binding signal intensity of "STPQTMRQAPKRPDA"
Out: 122

In: Provide one value: measured SPOT peptide array binding signal intensity of "GLRRARYKFPGQQKI"
Out: 283

In: Provide one value: measured SPOT peptide array binding signal intensity of "NPNRRAPRRPLSTQH"
Out: 1700
